Reference source for all entries: PubChem BioAssay (NCATS)

Assay: qHTS of pediatric cancer cell lines to identify multiple opportunities for drug repurposing: Primary screen for Rh41 cells (AID 1347108); further: nearly all actives have a fitted effect of over 70% in size
Settings: Rh41 rhabdomyosarcoma viability, CellTiter-Glo luminescence, 48 h; series mostly up to 46 µM
Records with an inconclusive call do not appear. The source made the active and inactive calls. The call rests on the fitted dose curve; in most records, active means well fitted cell-killing curve with a large enough effect; inconclusive means small, poorly fitted or top-dose-only effect; inactive means no such curve, though single readings can be large or run the other way.
Pick from active, inactive when you respond.

Example entries and their recorded answers appear below.
[[record]]
mol = "CC[C@H](Nc1ncnc2nc[nH]c12)c1nc2cccc(F)c2c(=O)n1-c1ccccc1"
assigned_label = "active"

[[record]]
mol = "O=C(Nc1ccc(F)c(C(F)(F)F)c1)Nc1nnc(-c2ccncc2)s1"
assigned_label = "inactive"

[[record]]
mol = "Cc1c(CCOc2ccc(C(=O)O)cc2)c2cc(Cl)ccc2n1C(c1ccccc1)c1ccccc1"
assigned_label = "inactive"


Moving on to another compound below.
// return assay outcome for C[C@]12CC[C@H](O)CC1=CC[C@@H]1[C@H]2CC[C@]2(C)C(c3cccnc3)=CC[C@H]12
inactive

====

Experiment: qHTS for differential inhibitors of proliferation of Plasmodium falciparum line Dd2 (AID 1882); further: nearly all actives have a fitted effect of over 65% in size
Settings: Plasmodium falciparum Dd2 proliferation inhibition; series mostly up to 28.7 µM
Results filed as inconclusive are left out. The source made the active and inactive calls. Calls follow the shape of the dose curve; as a rule, active = well fitted inhibition curve with a large enough effect; inconclusive = small, poorly fitted or top-dose-only effect; inactive = flat fitted curve, though single readings scatter.
// one of yes (1) = active, no (0) = inactive, no free text

Solved cases below.
[[record]]
compound = "Oc1ccc(C2CNCCc3c2cc(O)c(O)c3Cl)cc1 (stereo not given)"
assigned_label = "no (0)"

[[record]]
compound = "c1ccc([C@H]2CN3CCSC3=N2)cc1"
assigned_label = "no (0)"

[[record]]
compound = "CCCCNc1cc(C(=O)O)cc(S(N)(=O)=O)c1Oc1ccccc1"
assigned_label = "no (0)"

[[record]]
compound = "CCN(CC)CCCC(C)Nc1ccnc2cc(Cl)ccc12 (stereo not given)"
assigned_label = "yes (1)"

[[record]]
compound = "NCCCC(N)(C(=O)O)C(F)F (stereo not given)"
assigned_label = "no (0)"


I'd appreciate the recorded outcome for Clc1cccc(Cl)c1NC1=NCCN1 from this test.
no (0)

Now give it for O=c1n(CCCN2CCN(c3cccc(Cl)c3)CC2)nc2ccccn12 too.
no (0)

Can you handle NNCCc1ccccc1 next?
no (0)

And what about the compound NS(=O)(=O)c1cc2c(cc1Cl)NC=NS2(=O)=O ?
no (0)

Next up: CC(C)NCC(O)COc1ccc(COCCOC(C)C)cc1 (stereo not given)
no (0)

====

Assay: NS1 protein of Zika virus - qHTS assay to identify small molecule inhibitors in human HEK 293 cells (AID 1347053);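 further: plate controls were infected untreated cells for no effect and uninfected cells for full effect; nearly all actives have a fitted effect of over 55% in size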
Details: HEK293 ZIKV MR766 infection, NS1 TR-FRET, 24 h; series mostly up to 46.1 µM
Source text: National Center for Advancing Translational Sciences [NCATS] Johns Hopkins University School of Medicine The non-structural 1 (NS1) protein of zika virus is known to associate with the viral replication complex. This cell-based TR-FRET ZIKV NS-1 assay measures the increased NS-1 protein in human HEK 293 cells after a 24-hour Zika virus infection by a TR-FRET assay readout. […]
Records with an inconclusive call do not appear. Calls of active or inactive are those of the source. Calls come from the whole dose curve; as a rule, active = well fitted inhibition curve with a large enough effect; inconclusive = small, poorly fitted or top-dose-only effect; inactive = no such curve, though single readings can be large or run the other way.
quantity_kind: outcome

Known outcome results, listed for orientation:
[[record]]
molecule = "O=C(c1cc(Cc2n[nH]c(=O)c3ccccc23)ccc1F)N1CCN(C(=O)C2CC2)CC1"
quantity_kind = "outcome"
observed_measurement = "inactive"

[[record]]
molecule = "CC(c1cc2ccccc2s1)N(O)C(N)=O (centres undefined)"
quantity_kind = "outcome"
observed_measurement = "inactive"

[[record]]
molecule = "OC(CCN1CCCCC1)(c1ccccc1)C1CC2C=CC1C2 (centres undefined)"
quantity_kind = "outcome"
observed_measurement = "inactive"

[[record]]
molecule = "N#Cc1ccc(C(c2ccc(C#N)cc2)n2cncn2)cc1"
quantity_kind = "outcome"
observed_measurement = "inactive"


I would be grateful if you could share the reported outcome for COc1nc(-c2ccc3c(c2)OCO3)n(-c2ccc(NC(=O)CSc3ccccc3)cc2)n1 .
inactive

Queued: Cc1ccc(-n2nc(C(C)(C)C)cc2NC(=O)Nc2ccc(OCCN3CCOCC3)c3ccccc23)cc1
inactive
